// provenance: BigSolDB 2.1

condition info: in methyl acetate, 308.15 K
endpoint: solubility (mole fraction)

>  <sample smiles>
Cc1ccc2c(c1)C(=O)OC2=O

>  <endpoint>
solubility (mole fraction)

>  <measured result>
0.363

$$$$

###

condition info: in methyl acetate, 298.15 K

>  <sample smiles>
Cc1ccc2c(c1)C(=O)OC2=O

>  <solubility (mole fraction)>
0.289

$$$$

###

condition info: in n-butyl acetate, 293.15 K

>  <sample smiles>
Cc1ccc2c(c1)C(=O)OC2=O

>  <solubility (mole fraction)>
0.0397

$$$$

###

condition info: in toluene, 298.15 K
endpoint: solubility (mole fraction)

>  <sample smiles>
Cc1ccc2c(c1)C(=O)OC2=O

>  <endpoint>
solubility (mole fraction)

>  <measured result>
0.133

$$$$
